- System: Mycobacterium tuberculosis
- protocol.description: Antimycobacterial activity against Mycobacterium tuberculosis H37Rv by BACTEC-460 radiometric assay at 6.25 ug/ml
- Assay type: functional
quantity.name: inhibition at 6.25 µg/mL (%)
Lab book: enter the figure in %, no units written.

Param readout = inhibition at 6.25 µg/mL; param system = Mycobacterium tuberculosis; param query = NNC(=O)c1ccncc1 ; response: value
96

Next molecule: COc1cc(C2=NN(C(=O)COc3ccc4ccccc4c3)C(c3ccc(O)cc3)C2)c(C)cc1OCC(=O)O (stereo not given)
99

// repeat for COc1cc(C2=NN(C(=O)COc3ccc4ccccc4c3)C(Cc3ccccc3)C2)c(C)cc1OCC(=O)O (stereo not given) and report
95

Would you kindly repeat that for COc1cc(C2=NN(C(=O)COc3ccccc3)C(Cc3ccccc3)C2)c(C)cc1OCC(=O)O (stereo not given) ?
94

Now give it for COc1cc(C2=NN(C(=O)COc3ccccc3)C(c3ccc(O)cc3)C2)c(C)cc1OCC(=O)O (stereo not given) too.
99

----------
- Tested on: Mycobacterium tuberculosis
- protocol.description: Antimycobacterial activity against Mycobacterium tuberculosis H37Rv by BACTEC-460 radiometric assay
- Type: functional
quantity.name: MIC (µg/mL)
All answers are understood in µg/mL, so give the number only.

What measured MIC goes with COc1cc(C2=NN(C(=O)COc3ccccc3)C(c3ccc(O)cc3)C2)c(C)cc1OCC(=O)O (centres undefined) ?
0.1

Queued: COc1cc(C2=NN(C(=O)c3ccc([N+](=O)[O-])cc3)C(c3ccc(O)cc3)C2)c(C)cc1OCC(=O)O (centres undefined)
6.25

Param item: COc1cc(C2=NN(C(=O)COc3ccc4ccccc4c3)C(Cc3ccccc3)C2)c(C)cc1OCC(=O)O (centres undefined)
0.22

For COc1cc(C2=NN(C(=O)COc3ccc4ccccc4c3)C(c3ccc(O)cc3)C2)c(C)cc1OCC(=O)O (centres undefined) then?
0.1

Check NNC(=O)c1ccncc1 too.
0.1

----------
- System: Mycobacterium tuberculosis
- protocol.description: Antimycobacterial activity against Mycobacterium tuberculosis H37Rv by BACTEC-460 radiometric assay
- Assay type: functional
Assignment: determine reported MIC for the given compounds.

Give its MIC value. Item: COc1cc(C2=NN(C(=O)COc3ccc4ccccc4c3)C3CCCC23)c(C)cc1OCC(=O)O (stereo not given)
6.12 µg/mL

Next up: COc1cc(C2=NN(C(=O)Cc3ccccc3)C3CCCC23)c(C)cc1OCC(=O)O (stereo not given)
> 6.25 µg/mL

Also check COc1cc(C2=NN(C(=O)c3ccccc3)C(c3ccc(O)cc3)C2)c(C)cc1OCC(=O)O (stereo not given)
> 6.25 µg/mL

Similarly, COc1cc(C2=NN(C(=O)c3ccc([N+](=O)[O-])cc3)C(Cc3ccccc3)C2)c(C)cc1OCC(=O)O (stereo not given) ?
> 6.25 µg/mL

And what about the compound COc1cc(C2=NN(C(=O)COc3ccccc3)C(Cc3ccccc3)C2)c(C)cc1OCC(=O)O (stereo not given) ?
> 6.25 µg/mL

----------
- Tested on: Mycobacterium tuberculosis
- protocol.description: Antimycobacterial activity against Mycobacterium tuberculosis H37Rv by BACTEC-460 radiometric assay
- Assay type: functional
Provide the recorded MIC for the entries that follow.

Request body: readout MIC, system Mycobacterium tuberculosis, query COc1cc(C2=NN(C(=O)c3ccc([N+](=O)[O-])cc3)C3CCCC23)c(C)cc1OCC(=O)O (centres undefined) . Return the value.
> 6.25 µg/mL

Now give it for COc1cc(C2=NN(C(=O)COc3cccc4ccccc34)C3CCCC23)c(C)cc1OCC(=O)O (centres undefined) too.
> 6.25 µg/mL

Same read-out for COc1cc(C2=NN(C(=O)c3ccccc3)C3CCCC23)c(C)cc1OCC(=O)O (centres undefined) ?
> 6.25 µg/mL

Next: COc1cc(C2=NN(C(=O)COc3cccc4ccccc34)C(Cc3ccccc3)C2)c(C)cc1OCC(=O)O (centres undefined)
> 6.25 µg/mL

The measurements presented in this section are drawn from ChEMBL document CHEMBL1146905.
